Reported pIC50 against Matrix metalloproteinase-16 (Homo sapiens, UniProt P51512), gathered from multiple publications, appears below.
pIC50: −log10 of the molar value.
endpoint-name: pIC50

Solved cases below.
molecule	pIC50
CCCCOc1ccc(C(=O)[C@@H]2CC[C@H](Cn3nnc4ccc(C(F)(F)F)cc4c3=O)[C@H]2C(=O)O)cc1 (single isomer, unassigned)	6.74
O=C(O)[C@@H]1[C@@H](Cn2nnc3ccc(C(F)(F)F)cc3c2=O)CC[C@H]1C(=O)c1ccc(OCCC2CCCCC2)cc1 (single isomer, unassigned)	5.34
O=C(CC(CCn1nnc2ccccc2c1=O)C(=O)O)c1noc2cc(OCc3ccccc3)ccc12 (racemic)	4.60
O=C(CC(CCn1nnc2ccccc2c1=O)C(=O)O)c1noc2cc(OCC3CC3)ccc12 (racemic)	4.96
Cc1ccc2nnn(C[C@H]3CC[C@@H](C(=O)c4ccc(OCCC5CCOCC5)cc4)[C@@H]3C(=O)O)c(=O)c2c1 (single isomer, unassigned)	5.51

(a) O=C(O)[C@H]1[C@H](Cn2nnc3ccc(C(F)(F)F)cc3c2=O)CC[C@@H]1C(=O)c1ccc(OCc2cccc(C(F)(F)F)c2)cc1 (racemic)
(b) O=C(CC(CCn1nnc2ccccc2c1=O)C(=O)O)c1cc2cc(OCc3ccc(F)cc3)ccc2o1 (single isomer, unassigned; (+))
(c) O=C(O)[C@H]1[C@H](Cn2nnc3ccc(C(F)(F)F)cc3c2=O)CC[C@@H]1C(=O)c1ccc(OCCCc2ccccc2)cc1 (racemic)
Put the entries in order of pIC50, starting with the largest number. Please list the labels according to the requested order.
a, c, b
(a: 5.40, c: 4.85, b: 4.52)

###

pIC50: −log10 of the molar value.
Reported pIC50 against Matrix metalloproteinase-16 (Homo sapiens, UniProt P51512), gathered from multiple publications, appears below.
endpoint-name: pIC50

Solved cases below.
molecule	pIC50
O=C(O)[C@H]1[C@H](Cn2nnc3ccc(C(F)(F)F)cc3c2=O)CC[C@@H]1C(=O)c1ccc(OCC2CCOCC2)cc1 (racemic)	6.08
Cc1ccc2nnn(C[C@@H]3CC[C@H](C(=O)c4ccc(OCc5cccc(C(F)(F)F)c5)cc4)[C@H]3C(=O)O)c(=O)c2c1 (racemic)	6.01
O=C(CC(CCn1nnc2ccccc2c1=O)C(=O)O)c1noc2cc(OCc3ccc(F)cc3)ccc12 (racemic)	4.52
O=C(O)[C@H]1[C@H](Cn2nnc3ccccc3c2=O)CC[C@@H]1C(=O)c1ccc(OCc2ccccc2)cc1	7.11

(1) O=C(O)[C@@H]1[C@@H](Cn2nnc3ccc(C(F)(F)F)cc3c2=O)CC[C@H]1C(=O)c1ccc(SCc2cccc(Cl)c2)cc1 (single isomer, unassigned)
(2) O=C(O)[C@@H]1[C@@H](Cn2nnc3ccc(C(F)(F)F)cc3c2=O)CC[C@H]1C(=O)c1ccc(OCc2cccc(Cl)c2)cc1 (single isomer, unassigned)
Identify the item whose pIC50 is the smaller number: 1 or 2 Response format: the label of the selected entry.
1

###

Reported pIC50 against Matrix metalloproteinase-16 (Homo sapiens), gathered from multiple publications, appears below.
pIC50: −log10 of the molar value.
endpoint-name: pIC50

Solved cases below.
compound	measurement
O=C(O)[C@H]1[C@H](Cn2nnc3ccc(C(F)(F)F)cc3c2=O)CC[C@@H]1C(=O)c1ccc(OCc2ccccc2)cc1 (racemic)	5.35
O=C(CC(CCn1nnc2ccc(C(F)(F)F)cc2c1=O)C(=O)O)c1noc2cc(OCC3CCOCC3)ccc12 (racemic)	4.52

(A) CCCCCOc1ccc2c(C(=O)CC(CCn3nnc4ccccc4c3=O)C(=O)O)noc2c1 (racemic)
(B) O=C(O)[C@H]1[C@H](Cn2nnc3ccccc3c2=O)CC[C@@H]1C(=O)c1ccc(OCc2cccc(Cl)c2)cc1 (racemic)
Identify the item whose pIC50 is the smaller number: A or B Response format: the label of the selected entry.
A
(A: 4.62, B: 6.00)

(1) O=C(O)[C@H]1[C@H](Cn2nnc3ccc(C(F)(F)F)cc3c2=O)CC[C@@H]1C(=O)c1ccc(OCCC2CCOCC2)cc1 (stereo in doubt)
(2) O=C(CC(CCn1nnc2ccccc2c1=O)C(=O)O)c1noc2cc(OCCc3ccccc3)ccc12 (racemic)
(3) O=C(O)[C@@H]1[C@@H](Cn2nnc3ccc(C(F)(F)F)cc3c2=O)CC[C@H]1C(=O)c1ccc(OCc2ccc(Cl)cc2)cc1 (single isomer, unassigned)
Put the entries in order of pIC50, starting with the largest number. Please list the labels according to the requested order.
3, 1, 2

(P) CCCCCCOc1ccc(C(=O)[C@@H]2CC[C@H](Cn3nnc4ccc(C)cc4c3=O)[C@H]2C(=O)O)cc1 (single isomer, unassigned)
(Q) O=C(CC(CCn1nnc2ccc(C(F)(F)F)cc2c1=O)C(=O)O)c1noc2cc(OCc3ccccc3)ccc12 (racemic)
Identify the item whose pIC50 is the smaller number: P or Q Response format: the label of the selected entry.
Q
